- assay system: DNA polymerase beta (Homo sapiens) (UniProt P06746)
- assay comment: qHTS Assay for Inhibitors of DNA Polymerase Beta
- run conditions: Pol beta primer extension/strand displacement, fluorescence kinetic; series mostly up to 114 µM
In all, about 340,000 compounds went through this assay and about 4,500 (1.3%) were called active. Roughly 5% stayed inconclusive and do not appear here. Calls come from the whole dose curve; as a rule, active = well fitted inhibition curve with a large enough effect; inconclusive = small, poorly fitted or top-dose-only effect, or another doubt; inactive = no such curve, though single readings can be large or run the other way. The entries come from a sample that favours actives as a whole.
Please state which outcome applies, choosing from active, inactive

Previously resolved entries follow.
- compound: "CCN(CC)CCOc1ccc2c(c1)C(=NNC(=O)c1ccccn1)c1cc(OCCN(CC)CC)ccc1-2"
  group label: "active"
- compound: "CC(C)(C)c1ccc(S(=O)(=O)Nc2ccc(O)c(Sc3nc4ccccc4s3)c2)cc1"
  group label: "inactive"

// return assay outcome for Cc1ccc(C)n1C(Cc1ccccc1)C(=O)O (centres undefined)
active

// return assay outcome for `Cc1cccc(-n2ccnc2SCC(=O)Nc2cccc3ccccc23)c1C`
inactive

// return assay outcome for `Cc1ccc(C)c2sc(NC(=O)c3ccc(S(=O)(=O)N4CCCC4)cc3)nc12`
inactive

// return assay outcome for `O=C(NCc1ccccc1Cl)C1=Cc2cc(Br)ccc2OC1`
inactive

// return assay outcome for `COc1ccc(C2=NC(c3ccncc3)=Nc3ccc(Br)cc3N2)cc1`
inactive

// return assay outcome for `COc1ccc(-n2ccnc(NCCc3ccc(Cl)cc3)c2=O)cc1OC`
inactive

// return assay outcome for `C/C(=N\NC(=O)Cc1ccc(Cl)cc1)c1ccccn1`
inactive

###

- assay system: DNA polymerase beta (Homo sapiens)
- assay comment: qHTS Assay for Inhibitors of DNA Polymerase Beta; note: potency is the fitted concentration of half-maximal effect
- run conditions: Pol beta primer extension/strand displacement, fluorescence kinetic; series mostly up to 114 µM
About 4,500 (1.3%) of roughly 340,000 compounds were called active. Inconclusive results (about 5%) are left out. The sample as a whole holds a higher share of actives than the screen did.
outcome measure: Potency

For orientation, consider the following solved cases.
- compound: "Cc1ccccc1C(=O)Nc1nnc(S(=O)(=O)N(C)c2ccc(Cl)cc2)s1"
  reading: "inactive"
- compound: "CCCN1C(=O)C(O)(CC(=O)c2ccc(CC)cc2)c2cc(Br)ccc21 (stereo not given)"
  reading: "inactive"
- compound: "Cc1ccc(-c2nn(-c3ccccc3)cc2/C=C2\\SC(=S)N(CCCCCC(=O)O)C2=O)o1"
  reading: "50.1 µM (active)"
- compound: "CCN(CC)C(=O)CSc1nc2ccsc2c(=O)n1Cc1ccccc1Cl"
  reading: "inactive"

Quick check: Potency of `COc1ccc2[nH]c(C(=O)N/N=C/c3cc(OC)c(OC)c(OC)c3)cc2c1` ?
8.91 µM (active)

Quick check: Potency of `Cc1ccc(N2NC(=O)/C(=C/C=C/c3ccco3)C2=O)cc1C` ?
35.5 µM (active)

Quick check: Potency of `CCN(Cc1ccccc1)S(=O)(=O)c1ccc2c(c1)CCCN2C(C)=O` ?
inactive

Quick check: Potency of `CCCn1c(NCc2ccc(N(CC)CC)cc2)nc2ccccc21` ?
inactive

Quick check: Potency of `CCN1CCN(c2ncnc3c2cnn3-c2ccc(C)c(C)c2)CC1` ?
inactive

Quick check: Potency of `Cn1nc(-c2ccccc2)c(-c2ccccc2)c(C(=O)Nc2ccc(S(N)(=O)=O)cc2)c1=O` ?
inactive

Quick check: Potency of `CCOc1cccc(NC(=O)CSc2ncc(-c3ccc(Cl)cc3)[nH]2)c1` ?
inactive

Quick check: Potency of `Cc1ccccc1Nc1nn2c(=O)c3ccc(C(=O)NCCc4ccc(Cl)cc4)cc3nc2s1` ?
inactive

Quick check: Potency of `C/C(=N\Nc1ncc(Cl)cc1Cl)c1ccc(S(=O)(=O)NCc2ccco2)cc1` ?
inactive

Quick check: Potency of `Cc1ccc(N=C2NC(=O)/C(=C/C=C/c3ccco3)S2)cc1C` ?
10 µM (active)

Quick check: Potency of `COc1cccc(NC(=O)Nc2ccc3c(c2)N(C)C(=O)c2ccccc2S3)c1` ?
inactive
